# test context: in acetonitrile, 318.15 K
measurement kind: solubility (mole fraction)

Task: If you can, please state the reported solubility (mole fraction) value of `CCOC(=O)C1=C(C)NC(C)=C(C(=O)OCC)C1` .
Output: 0.0038

###

# test context: in ethyl formate, 313.15 K
measurement kind: solubility (mole fraction)
Would you mind answering with just the numeric figure?

Task: If you can, please state the reported solubility (mole fraction) value of `CCOC(=O)C1=C(C)NC(C)=C(C(=O)OCC)C1` .
Output: 0.00703

###

# test context: in ethanol, 283.15 K
measurement kind: solubility (mole fraction)
Would you mind answering with just the numeric figure?

Task: If you can, please state the reported solubility (mole fraction) value of `CCOC(=O)C1=C(C)NC(C)=C(C(=O)OCC)C1` .
Output: 0.000795
